Hello, the source for this data is patent US20230272055A1, in case you need it.

- MEASUREMENT_TARGET: T1, human mutCALR on BaF3 cells stably expressing human MPL and human mutCALR (MPL-mutCALR cells) (human)
- T1 construct: also called mutant calreticulin
- T1 chain: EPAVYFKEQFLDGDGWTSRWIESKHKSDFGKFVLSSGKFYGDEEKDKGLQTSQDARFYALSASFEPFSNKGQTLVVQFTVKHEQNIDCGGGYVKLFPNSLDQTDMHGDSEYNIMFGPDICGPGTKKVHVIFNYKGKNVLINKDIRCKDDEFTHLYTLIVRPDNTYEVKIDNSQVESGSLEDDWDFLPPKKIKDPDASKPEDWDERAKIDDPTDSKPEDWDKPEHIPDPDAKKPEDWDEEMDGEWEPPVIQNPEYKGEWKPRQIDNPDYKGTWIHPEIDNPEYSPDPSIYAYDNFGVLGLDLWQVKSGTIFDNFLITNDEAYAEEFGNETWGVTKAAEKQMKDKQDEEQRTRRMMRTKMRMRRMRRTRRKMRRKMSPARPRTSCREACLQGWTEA
- PROTOCOL_NOTES: flow cytometry, BaF3 MPL-mutCALR cells
Simple rule here: EC50 less than 6 ng/mL is met, otherwise not met.

Bench note: check whether anti-mutCALR antibody clone 188 (antibody, human IgG1, lambda, N297A, V domains shown) VH: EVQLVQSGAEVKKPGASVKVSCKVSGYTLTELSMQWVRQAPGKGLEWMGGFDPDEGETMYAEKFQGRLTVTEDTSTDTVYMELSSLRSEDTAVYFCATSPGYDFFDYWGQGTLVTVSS VL: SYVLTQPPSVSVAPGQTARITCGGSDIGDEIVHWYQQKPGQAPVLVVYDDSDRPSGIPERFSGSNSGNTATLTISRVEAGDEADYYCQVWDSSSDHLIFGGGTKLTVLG shows EC50 below 6 ng/mL
met

Is EC50 of anti-mutCALR antibody clone 67 (antibody, human IgG1, lambda, N297A, V domains shown) VH: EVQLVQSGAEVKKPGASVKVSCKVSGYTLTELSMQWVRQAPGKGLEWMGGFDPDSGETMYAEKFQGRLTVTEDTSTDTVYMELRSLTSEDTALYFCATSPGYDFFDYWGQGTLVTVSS VL: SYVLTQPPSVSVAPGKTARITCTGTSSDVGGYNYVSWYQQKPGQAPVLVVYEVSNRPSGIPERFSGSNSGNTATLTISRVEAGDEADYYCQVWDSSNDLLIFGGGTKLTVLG strictly below 6 ng/mL?
not met

# strict comparison: is reported EC50 < 6 ng/mL? input = anti-mutCALR antibody clone 77 (antibody, human IgG1, lambda, N297A, V domains shown) VH: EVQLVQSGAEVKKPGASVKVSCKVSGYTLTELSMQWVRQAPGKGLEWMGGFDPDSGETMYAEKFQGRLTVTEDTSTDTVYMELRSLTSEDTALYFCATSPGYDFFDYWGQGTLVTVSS VL: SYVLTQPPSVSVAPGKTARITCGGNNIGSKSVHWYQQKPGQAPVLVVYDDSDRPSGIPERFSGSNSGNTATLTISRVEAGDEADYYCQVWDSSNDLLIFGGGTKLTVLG
not met

EC50 strictly < 6 ng/mL for this binder? anti-mutCALR antibody clone 141 (antibody, human IgG1, lambda, N297A, V domains shown) VH: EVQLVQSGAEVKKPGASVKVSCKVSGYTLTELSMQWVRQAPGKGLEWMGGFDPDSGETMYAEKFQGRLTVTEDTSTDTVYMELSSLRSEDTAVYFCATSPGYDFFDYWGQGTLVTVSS VL: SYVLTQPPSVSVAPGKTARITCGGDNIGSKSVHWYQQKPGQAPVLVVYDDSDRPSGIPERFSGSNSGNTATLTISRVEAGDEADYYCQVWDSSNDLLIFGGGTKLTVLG
not met

Dear reviewer, please state whether anti-mutCALR antibody clone 127 (antibody, human IgG1, lambda, N297A, V domains shown) VH: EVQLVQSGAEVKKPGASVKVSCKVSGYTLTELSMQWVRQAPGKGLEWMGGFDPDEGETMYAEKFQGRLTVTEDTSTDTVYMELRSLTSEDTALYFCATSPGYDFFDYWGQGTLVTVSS VL: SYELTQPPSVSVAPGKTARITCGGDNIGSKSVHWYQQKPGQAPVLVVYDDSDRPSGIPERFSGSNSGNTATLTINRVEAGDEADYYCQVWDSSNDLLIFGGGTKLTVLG has EC50 strictly beneath 6 ng/mL.
met

Find out if reported EC50 for anti-mutCALR antibody clone 26 (antibody, human IgG1, lambda, V domains shown, human IgG1) VH: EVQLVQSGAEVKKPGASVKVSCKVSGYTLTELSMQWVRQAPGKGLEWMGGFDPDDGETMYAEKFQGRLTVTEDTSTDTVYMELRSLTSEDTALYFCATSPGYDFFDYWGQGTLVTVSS VL: SYVLTQPPSVSVAPGQTARITCGGNNIGSKSVHWYQQKPGQAPVLVVYDDSDRPSGIPERFSGSNSGNTATLTISRVEAGDEADYYCQVWDSSIDHLIFGGGTKVTVLG is less than 6 ng/mL
not met

Strictly below 6 ng/mL in EC50? anti-mutCALR antibody clone 8 (antibody, human IgG1, lambda, V domains shown, human IgG1) VH: QVQLVQSGAEVKKPGSSVKVSCKVSGYTLTELSMQWVRQAPGKGLEWMGGFDPDDGETMYAEKFQGRLTVTEDTSTDTVYMELRSLTSEDTALYFCATSPGYDFFDYWGQGTLVTVSS VL: SYELTQPPSVSVAPGQTARITCGGNNIGSKSVHWYQQKPGQAPVLVVYDDSDRPSGIPERFSGSNSGRTATLTISRVEAGDEADYHCQVWDSSSDHLVFGGGTKLTVLG
not met

EC50 strictly < 6 ng/mL for this binder? anti-mutCALR antibody clone 182 (antibody, human IgG1, lambda, N297A, V domains shown) VH: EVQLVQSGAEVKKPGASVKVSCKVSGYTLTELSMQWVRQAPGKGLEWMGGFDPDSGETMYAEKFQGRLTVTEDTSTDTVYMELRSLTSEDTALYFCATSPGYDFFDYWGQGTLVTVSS VL: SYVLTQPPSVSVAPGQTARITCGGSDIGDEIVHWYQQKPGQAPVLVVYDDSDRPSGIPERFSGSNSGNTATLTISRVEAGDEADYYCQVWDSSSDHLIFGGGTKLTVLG
met

Does anti-mutCALR antibody clone 11 (antibody, human IgG1, lambda, V domains shown, human IgG1) VH: EVRLVQSGAEVKKPGASVKVSCKVSGYTLTELSMQWVRQAPGKGLEWMGGFDPDDGETMYAEKFQGRLTVTEDTSTDTVYMELRSLTSEDTALYFCATSPGYDFFDYWGQGTLVTVSS VL: QSALTQPRSVSGSPGQSVTISCTGTSSDVGGYNYVSWYQQHPGKAPKLMIYDVSKRPSGVPDRFSGSNSGNTATLTINRVEAGDEADYYCQVWDSSNDLLIFGGGTKLTVLG have EC50 strictly under 6 ng/mL?
not met

is_below(EC50, 6 ng/mL) for anti-mutCALR antibody clone 66 (antibody, human IgG1, lambda, N297A, V domains shown) VH: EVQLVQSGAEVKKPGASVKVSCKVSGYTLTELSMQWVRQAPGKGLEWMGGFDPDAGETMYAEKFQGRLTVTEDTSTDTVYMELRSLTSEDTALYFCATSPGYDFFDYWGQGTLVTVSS VL: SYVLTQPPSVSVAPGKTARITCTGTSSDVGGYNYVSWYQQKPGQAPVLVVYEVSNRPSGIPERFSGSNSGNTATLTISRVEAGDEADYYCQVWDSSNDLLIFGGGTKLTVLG ?
met
